TEST_TARGET: T1, TROP2 on MDA-468 cells over-expressing TROP2 (TROP2+ MDA-468) (UniProt P09758 27-323)
T1 sequence (looked up): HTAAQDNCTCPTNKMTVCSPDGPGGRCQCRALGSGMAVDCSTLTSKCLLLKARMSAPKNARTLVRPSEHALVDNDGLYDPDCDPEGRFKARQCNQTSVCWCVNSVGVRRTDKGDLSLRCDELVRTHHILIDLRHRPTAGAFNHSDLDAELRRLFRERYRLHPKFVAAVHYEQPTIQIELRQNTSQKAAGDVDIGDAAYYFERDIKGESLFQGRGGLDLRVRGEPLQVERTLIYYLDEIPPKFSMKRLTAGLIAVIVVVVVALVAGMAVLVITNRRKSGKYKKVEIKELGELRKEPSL
MEASUREMENT_DESCRIPTION: cell-based or functional assay
Mark each entry T if its Indirect Cytotoxicity Cell viability % sits below 30%, and F for all others.

[ask] Lab note: Indirect Cytotoxicity Cell viability % threshold 30%. Does this binder come in strictly under it? TROP2-Ab50 (antibody, V domains shown, Monoclonal antibody from a hybridoma clone; also called TROP2 -Ab0) VH: QVQLQQSGAELVRPGTSVKISCKASGYTFTNYWLDWIKQRPGQGLEWIGNIFPGGDYTNYNEEFRGKATLTADTSSRTAFMQLSSLTSEDSAVYFCARSSYDYWGQGTLVTVSA VL: DILLTQSPAILSVSPGERVSFSCRASQNIGTSIHWYQQRTNGSPRLLIKYSSESISGIPSRFSGSGSGTDFSLTINSVESEDIGDYYCQHSYTWPFTFGSGTKLEIK
[reply] F

[ask] Given the entry TROP2-Ab7 (antibody, V domains shown, Monoclonal antibody from a hybridoma clone (V regions amplified with mouse Ig primers)) VH: QVQLQQSGPEVVKPGASVKMSCKASGYRFTDYVINWVKQRSGQGLEWIGQIYPGSDTFHYNKNFKGKATLTADKSSNTAYMQLNSLTSEDSAVYFCARFFEGFAYWGQGTLVTVSA VL: DIKMTQSPSSMYAFLGERVTITCKASQGINNYLSWFHLKPGKSPKSLIYRANRLVDGVPSRFSGSGSGQDYSLTISSLDYEDVGIYYCLQYDEFPLTFGGGTKLELK , would its reported Indirect Cytotoxicity Cell viability % be below 30%?
[reply] F

[ask] In plain terms, does TROP2-Ab8 (antibody, V domains shown, Monoclonal antibody from a hybridoma clone) VH: QVQLQQSGPEVVKPGASVKMSCKASGYRFTDYVINWVKQRTGQGLEWIGQIYPGSDSFHYNKNFKGKATLTADKSSNTAYMQLNSLTSEDSAVYFCARFFEGLAYWGQGTLVTVSA VL: DIKMTQSPSSMYAFLGERVTITCKASQGINNYLSWFQLKPGKSPKSLIYRANRLVDGVPSRFSGSGSGQDYSLTISSLDYEDMGIYYCLQYDEFPLTFGGGTKLELK come in under 30% for Indirect Cytotoxicity Cell viability %?
[reply] T

[ask] Record TROP2-Ab51 (antibody, V domains shown, Monoclonal antibody from a hybridoma clone) VH: QVQLQQSGPEVVKPGASVKMSCRASGYRFTDYVINWVKQRTGQGLEWIGQIYPGSDSFHYNKNFKGKATLTADKSSNTAYMQLNSLTSEDSAVYFCARFFEGFAYWGQGTLVTVSA VL: DIKMTQSPSSMYAFLGERVTITCKASQGINNYLSWFQLKPGKSPKSLIYRANRLVDGVPSRFSGSGSGQDYSLTISSLDYEDMGIYYCLQYDEFPLTFGGGTKLELK : is its Indirect Cytotoxicity Cell viability % strictly below 30%?
[reply] F

[ask] In plain terms, does TROP2-Ab22 (antibody, V domains shown, Monoclonal antibody from a hybridoma clone) VH: QVQLQQSGPELVKPGASVKMSCKASGYTFTDYVINWVKQRPGQGLEWVGQIYPGSDGTYYNEPFKGEATLTADKSSNTAYMQLSSLTSEDSAVYFCARFFEGFAYWGQGTLVTVSA VL: DIKMTQSPSSMFASLGERVTITCKASQDINWYLSWFQQKPGKSPKTLIYRANRLVDGVPSRFSGSGSGQDYSLTISSLDYEDMGVYYCLQYEEFPLTFGAGTKLELK come in under 30% for Indirect Cytotoxicity Cell viability %?
[reply] F

[ask] In the record for TROP2-Ab46 (antibody, V domains shown, Monoclonal antibody from a hybridoma clone) VH: QVQLQQPGAELVRPGASVRLSCKSSGYTFTSYWINWVKQRPGQGLEWIGNIFPSHSYTNYNQKFRDKATLTVDKSSSTAYLQLSSPTSDDSAVYYCTRGSGFDYWGQGTALTVSS VL: DILLTQSPAILSVSPGERVSFSCRASQNIGTSIHWYQQRTNGSPRLLISYASESISGIPSRFSGSGSGTDFTLIINSVESEDIADYYCQHSYSWPFTFGSGTKLEVK , is Indirect Cytotoxicity Cell viability % less than 30%?
[reply] T
